Assay details: NCI Yeast Anticancer Drug Screen. Data for the bub3 strain (AID 167)
Run parameters: S. cerevisiae bub3 mutant strain, at 1.2 µM, stronger effect = higher value
This is part of a sample that, as a whole, favours compounds with a hit. Of some 79,000 tested, about 15% had one in any assay.
The compounds listed here are annotated with their growth inhibition.
Provide the reading as a plain figure in %.

Lookup: Could you tell me which growth inhibition is on file for CCc1cccc(C(C)C)c1NC1=C([n+]2ccc(C)cc2)C(=O)c2ccccc2C1=O ?
Found: -8

====

The compounds listed here are annotated with their growth inhibition.
Assay details: NCI Yeast Anticancer Drug Screen. Data for the bub3 strain (AID 167)
Run parameters: S. cerevisiae bub3 mutant strain, at 5.0 µM (retest, dose inferred, filed as 0.5), stronger effect = higher value
The panel holds about 79,000 compounds, 15% with a hit somewhere; the sample as a whole holds those more often.
Provide the reading as a plain figure in %.

Solved entries:
Lookup: Could you tell me which growth inhibition is on file for CC(=O)OC1CCC2(C)C(CCC3C4=CCC(C5=CC(=O)OC5)C4(C)CCC32)C1 (stereo not drawn) ?
Found: 0

Lookup: Could you tell me which growth inhibition is on file for CC(=O)OC1C(O)C(C)OC(OC2C(OC(=O)C3CCC4C(C3)OC3(CC(OC(=O)/C=C/c5ccccc5)C(C)CO3)C43CO3)OC(C)C(O)C2OC(C)=O)C1O (stereo not drawn) ?
Found: 6

Lookup: Could you tell me which growth inhibition is on file for [Cl][Hg][Cl].c1ccc(CSc2ccccc2)cc1 ?
Found: 99

---
Lookup: Could you tell me which growth inhibition is on file for CS/C([S-])=N/N=C/c1ccccn1.[Cl][Pt+] ?
Found: -4

Lookup: Could you tell me which growth inhibition is on file for C[As](c1ccc(Br)cc1)c1ccc(Br)cc1 ?
Found: 2

Lookup: Could you tell me which growth inhibition is on file for CC(=O)OCC12CCC(C)=CC1OC1C3(O)N=C(C)OC3C2(C)C12CO2 (stereo not drawn) ?
Found: 18

Lookup: Could you tell me which growth inhibition is on file for CC(=O)Nc1ccc(/C=N/N=C(/N)N[N+](=O)[O-])cc1 ?
Found: -2

Lookup: Could you tell me which growth inhibition is on file for O=C1c2ccccc2C(=O)C(Cl)C1Cl (stereo not drawn) ?
Found: 88

====

Assay details: NCI Yeast Anticancer Drug Screen. Data for the rad50EPP+ strain (AID 151);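 note: 0% = growth of vehicle-treated control cultures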
Run parameters: S. cerevisiae rad50 mutant strain, at 3.7 µM, stronger effect = higher value
Compounds without any hit were thinned out: in the full panel of roughly 79,000, 15% have a hit.
Measured property: growth inhibition (%)
Provide the reading as a plain figure in %.

Solved entries:
Lookup: Could you tell me which growth inhibition is on file for Cc1cccc(NC(=O)CBr)c1 ?
Found: -3

Lookup: Could you tell me which growth inhibition is on file for O=C1NC(=S)NC(=O)C1=Cc1ccc([N+](=O)[O-])o1 ?
Found: 23

Lookup: Could you tell me which growth inhibition is on file for CC(C)(C)c1cc([N+](=O)[O-])cc([N+](=O)[O-])c1O ?
Found: -54

Lookup: Could you tell me which growth inhibition is on file for COc1cccc2c1C(=O)c1c(O)c3c(c(O)c1C2=O)C[C@@](O)(C(C)=O)C[C@@H]3OC1CC(N)C(OC2CC(O)C(O)C(C)O2)C(C)O1 (some centres undefined) ?
Found: 8

Lookup: Could you tell me which growth inhibition is on file for CC1=C2C(=C[C@@](C)(CO)[C@@H]2O)C(=O)[C@](C)(O)C12CC2 ?
Found: -1

---
Lookup: Could you tell me which growth inhibition is on file for CCOC(=O)C1([Se]c2ccccc2)CCCC1=O (centres undefined) ?
Found: 14

Lookup: Could you tell me which growth inhibition is on file for COc1cc(O)c2c(O)c3c(c4c2c1[C@]1(C4)C(C)=CCCC1(C)C)[C@H](O)[C@@]1(O)CC(=O)C(C(N)=O)=C(O)[C@@]1(O)C3=O ?
Found: 60

Lookup: Could you tell me which growth inhibition is on file for COC(=O)C1=C(C(=O)OC)C2OC1c1cc3ccccc3cc12 ?
Found: 57

Lookup: Could you tell me which growth inhibition is on file for CCC(=O)OC1CCn2c1nc1c2C(=O)C(C)=C(N2CC2)C1=O (centres undefined) ?
Found: 1

Lookup: Could you tell me which growth inhibition is on file for CC(Cc1ccccc1)N(C)Cc1nc(C2CCC([N+](=O)[O-])O2)no1 (centres undefined) ?
Found: 14

Lookup: Could you tell me which growth inhibition is on file for CNCC(O)c1ccc(O)c(O)c1.[Pt].c1ccc([PH+](c2ccccc2)c2ccccc2)cc1.c1ccc([PH+](c2ccccc2)c2ccccc2)cc1 ?
Found: -3

Lookup: Could you tell me which growth inhibition is on file for CC1=C(N2CC2)C(=O)c2ccccc2C1=O ?
Found: 16

Lookup: Could you tell me which growth inhibition is on file for CC[C@@]1(O)C[C@H](OC2CC(N(C)C)C(O)C(C)O2)c2c(O)c3c(c(O)c2[C@H]1OC1CC(N(C)C)C(O)C(C)O1)C(=O)c1cccc(O)c1C3=O (some centres undefined) ?
Found: 26

====

Assay details: NCI Yeast Anticancer Drug Screen. Data for the cln2 rad14 strain (AID 165);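 note: 0% = growth equal to vehicle treated cultures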
Run parameters: S. cerevisiae cln2 rad14 strain, at 50.0 µM (retest, dose inferred, filed as 5.0)
Compounds without any hit were thinned out: in the full panel of roughly 79,000, 15% have a hit. Active and inactive are the calls of the source. No stated cut-off is given here; in the data, active means growth inhibition above about 70%; inactive means the rest.
Outcome (select one): active, inactive

Examples with answers:
Lookup: Per the records of this test, what outcome belongs to C/C(=N\N)C(CN1CCCCC1)C(c1ccccc1)c1c(O)c2ccccc2oc1=O (centres undefined) ?
Found: inactive

Lookup: Per the records of this test, what outcome belongs to CN(C)C(=O)Oc1c(Cl)cc(Cl)c(Cl)c1Cl ?
Found: inactive

---
Lookup: Per the records of this test, what outcome belongs to [O]=[Sb][c]1ccc(Cl)cc1 ?
Found: inactive

Lookup: Per the records of this test, what outcome belongs to C/C=C(\C)C(=O)OC1C(C)=C2C(C1OC(=O)CCCCC)C(C)(OC(C)=O)CC(OC(=O)CCC)C1(O)C2OC(=O)C1(C)O (centres undefined) ?
Found: active

Lookup: Per the records of this test, what outcome belongs to CCN(CC)P1(=O)OC(c2ccccc2)=CCN1c1ccc(OC)cc1 (centres undefined) ?
Found: active

Lookup: Per the records of this test, what outcome belongs to CC(C)C1(NC(=O)C2C=C3c4cccc5[nH]cc(c45)CC3N(C)C2)OC2(O)C3CCCN3C(=O)C(Cc3ccccc3)N2C1=O (centres undefined) (tested in a mixture with another compound) ?
Found: active

Lookup: Per the records of this test, what outcome belongs to COc1ccc(/C=C/[N+](=O)[O-])c(OC)c1OC ?
Found: active

Lookup: Per the records of this test, what outcome belongs to O=[N+]([O-])C(Br)(Br)CCC(Br)(Br)[N+](=O)[O-] ?
Found: active

Lookup: Per the records of this test, what outcome belongs to [C-]#[O+].[C-]#[O+].[C-]#[O+].[CH3][Sn]([c]1ccccc1)[c]1ccccc1.[Co].c1ccc([PH+](c2ccccc2)c2ccccc2)cc1 ?
Found: active

====

Assay details: NCI Yeast Anticancer Drug Screen. Data for the mlh1 rad18 strain (AID 175)
Run parameters: S. cerevisiae mlh1 rad18 strain growth inhibition; at 5.0 µM (retest, dose inferred, filed as 0.5); stronger effect = higher value
The panel holds about 79,000 compounds, 15% with a hit somewhere; the sample as a whole holds those more often.
Measured property: growth inhibition (%)
Provide the reading as a plain figure in %.

Solved entries:
Lookup: Could you tell me which growth inhibition is on file for Nc1nc(CCl)cs1 ?
Found: -2

Lookup: Could you tell me which growth inhibition is on file for O=C1C=C(Cl)C(=O)C=C1Cl ?
Found: 11

Lookup: Could you tell me which growth inhibition is on file for CC(=O)[CH-]C(=O)c1ccccc1.CC(=O)[CH-]C(=O)c1ccccc1.C[C@]12CCC(=O)C=C1CC[C@@H]1C2CC[C@@]2(C)C1CC[C@]2(C)[O-].C[C@]12CCC(=O)C=C1CC[C@@H]1C2CC[C@@]2(C)C1CC[C@]2(C)[O-].Cl.[Ti+4] (stereo partly specified) ?
Found: 37

---
Lookup: Could you tell me which growth inhibition is on file for C[n+]1ccccc1-c1nc(-c2cccc[n+]2C)nc(-c2cccc[n+]2C)n1 ?
Found: 37

Lookup: Could you tell me which growth inhibition is on file for CCCCCCCCCCCCCCCCCC(=O)[O][Hg][c]1ccccc1 ?
Found: 34

Lookup: Could you tell me which growth inhibition is on file for C[N+](C)=C1C=CC(=C2C=CSC=C2)C=C1 ?
Found: 26

Lookup: Could you tell me which growth inhibition is on file for Nc1nc(N)c(-c2ccc(Cl)c(Cl)c2)c(CCc2ccc(CNC(=O)c3ccc(S(=O)(=O)F)cc3)cc2)n1 ?
Found: 22

Lookup: Could you tell me which growth inhibition is on file for OC1CCCC2CCC[N-]C12.OC1CCCC2CCC[N-]C12.[O]=[V][OH] (stereo unspecified) ?
Found: 99

Cited source: PubChem BioAssay (NCI)
